A collection of molecules and their measured TGI
Tested on: SW-620 colon
experimental_details: NCI tumour cell line growth inhibition, 48 h
Form entry: value (µM) — number only.

Here is how some molecules turned out for TGI.
| molecule | tested_target | TGI / µM |
| --- | --- | --- |
| COc1cc(C=C2C(C)=NN(c3cccc(Cl)c3)C23SCC(=O)N3c2nc3ccccc3s2)ccc1O (stereo not given) | SW-620 colon | 96.9 |
| O=C1C(Br)=CC2(C=C1Br)CCNC1=C2C(=O)c2ccccc2C1=O | SW-620 colon | 87.8 |

As a next step, examine the molecule that follows.
Lookup: Consider the molecule "C/C(=N/NC(=S)Nc1ccc([N+](=O)[O-])cc1)c1cccc(/C(C)=N\NC(=S)Nc2ccc([N+](=O)[O-])cc2)n1" and give its recorded TGI.
Found: 16.1
